Each recorded value in this set is attributed to patent US20200199501A1.

experimental-protocol: Acute inhalation toxicity (OECD Guideline No. 403)
details: in vivo, inhaled, OECD Guideline No. 403 (2009), Method B.2 of Commission Regulation (EC) No. 440/2008
test-readout: LC50

Problem: So what's the measured LC50 for this one? FC(F)(F)C1(F)CCC1(F)F (stereo not shown) [TFMCB]
Result: > 19.1 µg/mL
